// values below are reported pIC50
Sequence of the target: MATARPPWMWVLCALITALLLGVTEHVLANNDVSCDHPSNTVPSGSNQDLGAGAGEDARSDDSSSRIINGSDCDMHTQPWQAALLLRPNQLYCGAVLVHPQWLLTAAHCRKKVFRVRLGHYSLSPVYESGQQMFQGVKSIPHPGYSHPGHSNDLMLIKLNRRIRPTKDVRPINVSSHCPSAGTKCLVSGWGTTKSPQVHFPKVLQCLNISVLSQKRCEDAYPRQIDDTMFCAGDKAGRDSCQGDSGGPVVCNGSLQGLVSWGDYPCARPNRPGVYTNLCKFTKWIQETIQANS
API: returns pIC50 as number; meaning -log10 of concentration in mol/L.

smiles=CCCCCCCCCCCCCCCCC/C(O)=C1/C(=O)[C@H](Cc2ccccc2)N(C(=O)OC(C)(C)C)C1=O property_label=pIC50 value_reported=4.77

# input for lookup
Exercise: Can you share its pIC50? I mean this compound: CCCCC/C=C\C/C=C\CCCCCCC/C(O)=C1/C(=O)[C@H](Cc2ccccc2)N(C(=O)OC(C)(C)C)C1=O
Key: 4.85
